Measured values drawn from patent US9290459B1 for this set.

TARGET_OR_TEST_SYSTEM: neutrophil elastase in human plasma (Homo sapiens (Human), UniProt P08246)
Sequence (P08246 30-247): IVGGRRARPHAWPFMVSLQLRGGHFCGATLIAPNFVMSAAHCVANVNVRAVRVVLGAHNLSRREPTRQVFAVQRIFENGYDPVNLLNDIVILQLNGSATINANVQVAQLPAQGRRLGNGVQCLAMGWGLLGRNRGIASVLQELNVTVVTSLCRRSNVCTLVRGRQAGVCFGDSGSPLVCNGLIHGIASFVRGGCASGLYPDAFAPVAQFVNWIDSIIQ
TEST: Neutrophil elastase inhibitory activity in human plasma (zymosan-stimulated blood)
Assay type: biochemical
CONDITION_DETAILS: EC50, neutrophil elastase enriched human plasma from zymosan-stimulated blood
pEC50: −log10 of the molar value.

{"COMPOUND": "CN1C(=O)N(c2cccc(C(F)(F)F)c2)C2=C(C(=O)CC2)C1c1ccc(C#N)cc1[S+](C)[O-] (single isomer, unassigned) [Example 30B]", "pEC50": 8.70}
{"COMPOUND": "CN1C(=O)N(c2cccc(C(F)(F)F)c2)C2=C(C(=O)CC2)C1c1ccc(C#N)cc1[S+](C)[O-] (single isomer, unassigned) [Example 30A]", "pEC50": 9.00}

----------
# solubility at 24 h annotations
TEST: Aqueous solubility
Type: physicochemical
CONDITION_DETAILS: McIlvaine buffer pH 6.8 with 2.5% DMSO, pH 6.8, aqueous buffer, kinetic from dmso stock, McIlvaine buffer pH 6.8, 2.5% DMSO, 24 h shaking

{"COMPOUND": "CNC(=O)N1C(=O)N(c2cccc(C(F)(F)F)c2)C2=C(C(=O)CC2)C1c1ccc(C#N)cn1 (stereo not drawn)", "solubility at 24 h": "41 µg/mL"}
{"COMPOUND": "CC(C)(O)CNC(=O)N1C(=O)N(c2cccc(C(F)F)c2)C2=C(C(=O)CC2)C1c1ccc(C#N)cc1 (stereo not drawn)", "solubility at 24 h": "70 µg/mL"}
{"COMPOUND": "CCS(=O)(=O)c1cc(C#N)ccc1C1C2=C(CCC2=O)N(c2cccc(C(F)(F)F)c2)C(=O)N1S(C)(=O)=O (stereo not drawn)", "solubility at 24 h": "21 µg/mL"}
{"COMPOUND": "CN1C(=O)N(c2ccnc(C(F)(F)F)c2)C2=C(C(=O)CC2)C1c1ccc(C#N)cc1S(C)(=O)=O (stereo not drawn)", "solubility at 24 h": "79 µg/mL"}
{"COMPOUND": "CNC(=O)N1C(=O)N(c2cccc(C(F)F)c2)C2=C(C(=O)CC2)C1c1ccc(C#N)cc1 (stereo not drawn)", "solubility at 24 h": "41 µg/mL"}
{"COMPOUND": "N#Cc1ccc(C2C3=C(CCC3=O)N(c3cccc(C(F)F)c3)C(=O)N2C(=O)NCCO)cc1 (stereo not drawn)", "solubility at 24 h": "91 µg/mL"}
{"COMPOUND": "CC(C)NC(=O)N1C(=O)N(c2cccc(C(F)(F)F)c2)C2=C(C(=O)CC2)[C@H]1c1ccc(C#N)cc1S(C)(=O)=O", "solubility at 24 h": "16 µg/mL"}
{"COMPOUND": "CS(=O)(=O)c1cc(C#N)ccc1C1C2=C(CCC2=O)N(c2cccc(C(F)F)c2)C(=O)N1C(=O)NC1CC1 (stereo not drawn)", "solubility at 24 h": "34 µg/mL"}
{"COMPOUND": "CN1C(=O)N(c2cccc(C(F)(F)F)c2)C2=C(C(=O)CC2)[C@H]1c1ccc(C#N)cc1", "solubility at 24 h": "70 µg/mL"}

----------
Let's look at some molecules and their measured pIC50.
TARGET_OR_TEST_SYSTEM: Human neutrophil elastase (Homo sapiens (Human), UniProt P08246)
Sequence (P08246 30-247): as above
TEST: Human Neutrophil Elastase Assay
Type: biochemical
CONDITION_DETAILS: human neutrophil elastase, substrate MeOSuc-Ala-Ala-Pro-Val-AMC 250 μM, pH 7.5; read-out: IC50
pIC50: −log10 of the molar value.
READOUT_KIND: pIC50

{"MOLECULE": "COCCNC(=O)N1C(=O)N(c2cccc(C(F)(F)F)c2)C2=C(C(=O)CC2)C1c1ccc(C#N)cc1F (stereo not shown) [Example 49.2]", "READOUT_QUALIFIER": "=", "RESULT_VALUE": 8.89}
{"MOLECULE": "CN1C(=O)N(c2ccnc(C(F)(F)F)c2)C2=C(C(=O)CC2)C1c1ccc(C#N)cc1 (stereo not shown) [Example 28]", "READOUT_QUALIFIER": "=", "RESULT_VALUE": 7.44}
{"MOLECULE": "CS(=O)(=O)c1cc(C#N)ccc1[C@@H]1C2=C(CCC2=O)N(c2cccc(C(F)(F)F)c2)C(=O)N1C(=O)NC1C2CC1C2 (stereo partly shown) [Example 48.2]", "READOUT_QUALIFIER": ">", "RESULT_VALUE": 9.00}
{"MOLECULE": "CC(C)(CO)NC(=O)N1C(=O)N(c2cccc(C(F)(F)F)c2)C2=C(C(=O)CC2)[C@H]1c1ccc(C#N)cc1S(C)(=O)=O [Example 47.14]", "READOUT_QUALIFIER": ">", "RESULT_VALUE": 9.00}
{"MOLECULE": "CS(=O)(=O)c1cc(C#N)ccc1C1NC(=O)N(c2cccc(C(F)(F)F)c2)C2=C1C(=O)CC2 (stereo not shown) [Example 10]", "READOUT_QUALIFIER": "=", "RESULT_VALUE": 8.24}
{"MOLECULE": "CCS(=O)(=O)N1C(=O)N(c2cccc(C(F)(F)F)c2)C2=C(C(=O)CC2)C1c1ccc(C#N)cc1 (stereo not shown) [Example 35]", "READOUT_QUALIFIER": "=", "RESULT_VALUE": 8.57}
{"MOLECULE": "Cc1cc(C#N)ccc1C1NC(=O)N(c2cccc(C(F)(F)F)c2)C2=C1C(=O)CC2 (stereo not shown) [Example 15.2]", "READOUT_QUALIFIER": "=", "RESULT_VALUE": 7.54}
{"MOLECULE": "CC(C)(O)CNC(=O)N1C(=O)N(c2cccc(C(F)(F)F)c2)C2=C(C(=O)CC2)[C@H]1c1ccc(C#N)cc1 [Example 41A]", "READOUT_QUALIFIER": ">", "RESULT_VALUE": 9.00}
{"MOLECULE": "CNC(=O)N1C(=O)N(c2cccc(C(F)(F)F)c2)C2=C(C(=O)CC2)C1c1ccc(C#N)cc1Cl (stereo not shown) [Example 50.4]", "READOUT_QUALIFIER": "=", "RESULT_VALUE": 8.92}
{"MOLECULE": "CS(=O)(=O)c1cc(C#N)ccc1C1NC(=O)N(c2ccnc(C(F)(F)F)c2)C2=C1C(=O)CC2 (stereo not shown) [Example 15.6]", "READOUT_QUALIFIER": "=", "RESULT_VALUE": 7.36}
{"MOLECULE": "CC(C)(O)CNC(=O)N1C(=O)N(c2ccnc(C(F)(F)F)c2)C2=C(C(=O)CC2)C1c1ccc(C#N)cc1 (stereo not shown) [Example 55]", "READOUT_QUALIFIER": "=", "RESULT_VALUE": 8.21}
{"MOLECULE": "N#Cc1ccc(C2C3=C(CCC3=O)N(c3cccc(C(F)(F)F)c3)C(=O)N2CC(=O)N2CCSCC2)cc1 (stereo not shown) [Example 6]", "READOUT_QUALIFIER": "=", "RESULT_VALUE": 8.52}
{"MOLECULE": "COc1cc(C#N)ccc1C1NC(=O)N(c2cccc(C(F)(F)F)c2)C2=C1C(=O)CC2 (stereo not shown) [Example 15.1]", "READOUT_QUALIFIER": "=", "RESULT_VALUE": 7.38}
{"MOLECULE": "CNC(=O)N1C(=O)N(c2ccnc(C(F)(F)F)c2)C2=C(C(=O)CC2)C1c1ccc(C#N)cc1 (racemic) [Example 54.1]", "READOUT_QUALIFIER": "=", "RESULT_VALUE": 8.31}
{"MOLECULE": "N#Cc1ccc(C2C3=C(CCC3=O)N(c3cccc(C(F)(F)F)c3)C(=O)N2CC(N)=O)cc1 (stereo not shown) [Example 5]", "READOUT_QUALIFIER": "=", "RESULT_VALUE": 7.95}
{"MOLECULE": "CCS(=O)(=O)c1cc(C#N)ccc1C1C2=C(CCC2=O)N(c2cccc(C(F)(F)F)c2)C(=O)N1C (stereo not shown) [Example 27.3]", "READOUT_QUALIFIER": "=", "RESULT_VALUE": 8.92}
{"MOLECULE": "CS(=O)(=O)N1C(=O)N(c2cccc(C(F)(F)F)c2)C2=C(C(=O)CC2)[C@H]1c1ccc(C#N)cc1 [Example 9A]", "READOUT_QUALIFIER": "=", "RESULT_VALUE": 8.52}
{"MOLECULE": "CN1C(=O)N(c2cccc(C(F)(F)F)c2)C2=C(C(=O)CC2)[C@H]1c1ccc(C#N)cc1S(C)(=O)=O [Example 25]", "READOUT_QUALIFIER": ">", "RESULT_VALUE": 9.00}
{"MOLECULE": "N#Cc1ccc(C2C3=C(CCC3=O)N(c3cccc(C(F)(F)F)c3)C(=O)N2C(=O)NC2CC[S+]([O-])CC2)cc1 (stereo not shown) [Example 43]", "READOUT_QUALIFIER": ">", "RESULT_VALUE": 9.00}
{"MOLECULE": "CNC(=O)N1C(=O)N(c2cccc(C(F)(F)F)c2)C2=C(C(=O)CC2)[C@H]1c1ccc(C#N)cc1S(C)(=O)=O [Example 47.1]", "READOUT_QUALIFIER": ">", "RESULT_VALUE": 9.00}
{"MOLECULE": "CCS(=O)(=O)c1cc(C#N)ccc1C1C2=C(CCC2=O)N(c2cccc(C(F)(F)F)c2)C(=O)N1S(C)(=O)=O (stereo not shown) [Example 37.4]", "READOUT_QUALIFIER": "=", "RESULT_VALUE": 8.77}
{"MOLECULE": "CS(=O)(=O)c1cc(C#N)ccc1C1NC(=O)N(c2cccc(C(F)F)c2)C2=C1C(=O)CC2 (stereo not shown) [Example 15.4]", "READOUT_QUALIFIER": "=", "RESULT_VALUE": 8.01}
{"MOLECULE": "COCCNC(=O)N1C(=O)N(c2cccc(C(F)F)c2)C2=C(C(=O)CC2)C1c1ccc(C#N)cc1 (stereo not shown) [Example 52.4]", "READOUT_QUALIFIER": ">", "RESULT_VALUE": 9.00}
{"MOLECULE": "COC(=O)N1C(=O)N(c2cccc(C(F)(F)F)c2)C2=C(C(=O)CC2)[C@H]1c1ccc(C#N)cc1S(C)(=O)=O [Example 33]", "READOUT_QUALIFIER": ">", "RESULT_VALUE": 9.00}
{"MOLECULE": "N#CCN1C(=O)N(c2cccc(C(F)(F)F)c2)C2=C(C(=O)CC2)C1c1ccc(C#N)cc1 (stereo not shown) [Example 22]", "READOUT_QUALIFIER": "=", "RESULT_VALUE": 7.59}
{"MOLECULE": "CN(C)C(=O)N1C(=O)N(c2cccc(C(F)(F)F)c2)C2=C(C(=O)CC2)C1c1ccc(C#N)cc1 (stereo not shown) [Example 7]", "READOUT_QUALIFIER": "=", "RESULT_VALUE": 6.91}
{"MOLECULE": "N#Cc1ccc([C@@H]2NC(=O)N(c3cccc(C(F)(F)F)c3)C3=C2C(=O)CC3)nc1 [Example 15.3B]", "READOUT_QUALIFIER": "=", "RESULT_VALUE": 5.76}
{"MOLECULE": "N#Cc1ccc(C2C3=C(CCC3=O)N(c3ccnc(C(F)(F)F)c3)C(=O)N2C(=O)NC2CC2)cc1 (racemic) [Example 54.3]", "READOUT_QUALIFIER": "=", "RESULT_VALUE": 8.82}
